System: DU-145 prostate
assay text: NCI tumour cell line growth inhibition, 48 h
Exercise: state measured TGI for each of the compounds provided.

Below: 5 compounds and their reported TGI.
CC1CN(CCO)CC(C)O1 (stereo not drawn): > 100 µM
O=c1c(Cl)nsnc1Cl: 31.5 µM
COc1cc[c]([Hg][Cl])cc1: 18.2 µM
COc1ccc(CN2CCc3c(Cl)nc(N)nc3C2=O)c(OC)c1: 40.3 µM
COc1cc([C@@H]2c3cc4c(cc3[C@H](OC3OC5COC(c6ccccc6)OC5C(O)C3O)[C@H]3COC(=O)[C@H]23)OCO4)cc(OC)c1OC (stereo partly drawn): 2.04 µM

Lab note: each compound below needs its TGI filled in.
1. O=[N+]([O-])C(/C(Cl)=C(/Cl)N1CCOCC1)=C1\NCCO1
2. CC(=O)Nc1ccc(S(=O)(=O)Nc2nnc(S(N)(=O)=O)s2)cc1
3. CC1(C)C2CCC1(CS(=O)(=O)Nc1ccccc1)C(=O)C2 (stereo not drawn)

Result ::
1: > 100 µM; 2: > 100 µM; 3: > 100 µM

Count: 4. Required value per item: TGI.
1. NNC(=O)CC(=O)Nc1ccc(Cl)cc1
2. O=S(=O)(c1cc(Cl)ccc1Cl)N1CCN(S(=O)(=O)c2cc(Cl)ccc2Cl)CC1
3. C=CCOc1ccc(C2c3c([nH][nH]c3=O)CC(O)(OCC)C2C(=O)OCC)cc1OC (stereo not drawn)
4. CC1(C)O[C@H](C(=O)O)[C@@H](C(=O)O)O1

Result ::
1: > 100 µM; 2: 29.6 µM; 3: > 100 µM; 4: > 100 µM

// sample CC(=O)OCC1OC(n2cc(F)c(=O)[nH]c2=O)C(OC(C)=O)C1OC(C)=O (stereo not drawn) , its TGI was > 100 µM

====

System: KM12 colon
assay text: NCI tumour cell line growth inhibition, 48 h
Assignment: determine reported TGI for the given compounds.

Each compound below has a reported value. Please supply its TGI.
1. CCN(CC)CCN(C)CC(C)(C)C(=O)/C=C/c1ccccc1
2. CN(Cc1c2ccccc2cc2ccccc12)S(=O)(=O)c1ccc(-c2c3nc(c(-c4ccc(S(=O)(=O)N(C)Cc5c6ccccc6cc6ccccc56)cc4)c4ccc([nH]4)c(-c4ccc(S(=O)(=O)N(C)Cc5c6ccccc6cc6ccccc56)cc4)c4nc(c(-c5ccc(S(=O)(=O)N(C)Cc6c7ccccc7cc7ccccc67)cc5)c5ccc2[nH]5)C=C4)C=C3)cc1
3. C=CCNC1=C2C[C@@H](C)C[C@@H](OC)C(OC(=O)CCCN(C)C)[C@H](C)/C=C(\C)[C@@H](OC(N)=O)[C@H](OC)/C=C\C=C(/C)C(=O)NC(=CC1=O)C2=O (stereo partly drawn)
4. Cc1cc2c(cc1-c1cc3c(cc1C)C(C(C)C)=C(O)C(=O)/C3=C\Nc1nc(-c3ccccc3)cs1)/C(=C/Nc1nc(-c3ccccc3)cs1)C(=O)C(O)=C2C(C)C

Result ::
1. 25.4 µM
2. > 100 µM
3. 14.6 µM
4. > 100 µM

====

For each entry below, report its TGI value.
System: SK-MEL-28 melanoma
assay text: NCI tumour cell line growth inhibition, 48 h

CN(C)N=Nc1ccc([N+](=O)[O-])cc1C(N)=O: > 100 µM
COC1CCC(=C2C(=O)OC(C)(C)OC2=O)N1 (stereo not drawn): > 100 µM
NNC(=O)CC(=O)Nc1ccc(Cl)cc1: > 100 µM
CN(NC(=O)/C(=C/c1ccc(O)cc1)NC(=O)c1ccccc1)c1ccnc2cc(Cl)ccc12: 38.1 µM
C=C1C(=O)O[C@@H]2[C@@H]3O[C@@](C)(CC/C=C(\C)CCC[C@@H]2C)[C@H](O)C[C@@H]13: 12.2 µM

For each of the items listed, what is its TGI?
1. CC1(CCCC2(C)CCNC2=O)OCCO1 (stereo not drawn)
2. Oc1nc(N/N=C/c2c[nH]c3ccccc23)[nH]c1/C=C1\C=Nc2ccccc21
3. CC(=O)O[C@@H]1C=CC(=O)C2(CC(=O)O[C@@H]2/C=C(\C)CCC=C(C)C)C1 (stereo partly drawn)
4. Cc1ccc(CCC(=O)Nc2ncc(Cc3cc(Cl)ccc3Cl)s2)o1
5. O=c1c(Cl)nsnc1Cl

Result ::
> 10 µM
54.1 µM
7.79 µM
> 100 µM
35.1 µM
